Value source: paper PMC11881906

Test: Plasma pharmacokinetic study
Assay type: in vivo, CD-1 mice
Conditions: male, CD-1, mouse, plasma; IP 20 mg/kg
From the text: […]
readoutKind: AUC(0-inf) (ng·h/mL)
Express the result in ng·h/mL but write the number alone.

Task: I have this molecule here, CC(C)=CCOc1cc(OCCCNC(=N)N)cc2oc3cc(OCCCNC(=N)N)ccc3c(=O)c12 , and I need its recorded AUC(0-inf).
Result: 24000

====

Test: CCK-8 cytotoxicity assay
Type: cell-based
Details: human, HepG2 cells, 25 μg/ml, read-out: Viable cells (%) HepG2 cells
readoutKind: viability at 24 h, 25 μg/ml (%)
Could you give me the number in %? Just the number is fine.

Task: Look up viability at 24 h, 25 μg/ml for this compound: CC(C)=CCOc1cc(OCCCNC(=N)N)cc2oc3cc(OCCCNC(=N)N)ccc3c(=O)c12
Result: 83.9
